Entry source: PubChem BioAssay (NCATS)

# procedure.text: Cell Viability - BJ (AID 421);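 further: cells exposed to compound for 40 hours at 37 °C before readout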
# condition.label: BJ fibroblast viability, qHTS
# Excerpt: NIH Chemical Genomics Center [NCGC] NIH Molecular Libraries Screening Centers Network [MLSCN] National Institutes of Environmental Health Sciences [NIEHS] National Toxicology Program [NTP] We have developed a 1536-well cell-based assay for quantitative high throughput screening (qHTS) against a number of cell lines to determine in vitro cytotoxicity of small molecules. […] 8. Detection; Luminescence; Viewlux plate reader […]
Records with an inconclusive call do not appear. Active and inactive are the calls of the source. The call rests on the fitted dose curve.
A correct response names exactly one class from active, inactive

Hi team, can someone confirm the assay call for "C=CC(=C)CCC=C(C)C" ?
inactive

Check "COc1c2ccoc2cc2oc(=O)ccc12" too.
inactive

Then this compound: "O=C(O)c1ccc(O)cc1O"
inactive

Cool, now S=C1NC=NC2N=CNC12 (stereo not drawn)
active

What about this compound? "c1ccccc1"
inactive

Entry to check: "Cc1c(N=C=O)cccc1N=C=O"
inactive

Proceed to CC1(C)CC(N=C=O)CC(C)(CN=C=O)C1 (stereo not drawn)
inactive

Thanks! And "CCCCCCCCCCCCCC(=O)O" ?
inactive

---

# target.entity: Nicotinamide N-methyltransferase (Homo sapiens)
# procedure.text: Confirmatory Screen for Target Class Profiling of Small Molecule Inhibitors of Methyltransferases (AID 1745852)
# condition.label: MTase-Glo luminescence, SAH detection, recombinant enzyme; measured here: NNMT max response; stronger effect = lower value
Please note: activity exactly at -10% is Not met. Only values below -10% get Met.

Worked cases, answers included:
CC(C)c1nccn1CCCNC(=O)c1ccc(-c2cccc(F)c2)nc1 : Not met
COc1cccc(NC(=O)Cn2c(=O)oc3cc(S(=O)(=O)N4CCCC4)ccc32)c1 : Not met
O=C1COc2ccc(-c3cccc(O)c3)nc2CN1Cc1ccc(C(F)(F)F)cc1 : Met
O=C(CCc1nnc2n(CCc3ccccc3)c(=O)c3ccccc3n12)NCCCN1CCCCC1 : Not met
COc1ccc(-c2nc3ccccc3[nH]2)cc1 : Met

Identify whether the compound "COCCn1ccc2c(C3=CCOCC3)nc(-c3cccc4[nH]ccc34)cc21" records activity below -10%.
Met

And what about the compound "FC(F)(F)c1ccnc(N2CC[C@H](c3nnc(-c4ccncc4)o3)C2)n1" ?
Met

---

# target.entity: Rap guanine nucleotide exchange factor 3 (Homo sapiens)
# procedure.text: Counterscreen qHTS for antagonist of cAMP-regulated guanine nucleotide exchange factor 3 (EPAC1) (AID 1645888);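 further: fluorescence loss as bound BODIPY-GDP is released from Rap1B; % of control where 0% means no effect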
# condition.label: Rap1B-BODIPY-GDP nucleotide exchange, fluorescence; series mostly up to 154 µM
Results filed as inconclusive are left out. Calls of active or inactive are those of the source. The call rests on the fitted dose curve; in most records, active means well fitted inhibition curve with a large enough effect; inconclusive means small, poorly fitted or top-dose-only effect; inactive means no such curve, though single readings can be large or run the other way.
observable: activity change, negative = inhibition

Cc1ccc(N(Cc2ccc([N+](=O)[O-])cc2)C(=O)c2ccco2)cc1C : inactive
COc1ccc(CCN2C(=O)CSC2=Nc2ccc(C(C)C)cc2)cc1OC : inactive
Cc1ccc(OCCn2c(=O)n(C)c3ccccc32)cc1 : inactive
Cc1c(CCC(=O)O)c(=O)oc2c(C)c3occ(-c4ccc(Br)cc4)c3cc12 : inactive
O=C(Cc1ccc(F)cc1)Nc1ccccc1Sc1ccccc1 : inactive

Below: the item to evaluate.
Entry "Cc1ccc(CSC2=NCCN2S(=O)(=O)c2ccc(F)cc2)cc1" , system Rap guanine nucleotide exchange factor 3 (Homo sapiens): what activity change, negative = inhibition was measured?
-7.41% [at 30.8 µM] (inactive)
